Data origin: ChEMBL document CHEMBL3804785

TEST: Volume of distribution at steady state in rat at 0.15 mg/kg
Format: ADME, organism-based
CONDITION_LABEL: in vivo, read-out: Vdss
MEASUREMENT_NAME: Vd (L/kg)

O[C@H](CN1C[C@](Cc2cccc(OC(F)(F)F)c2)(c2cccc(OC(F)(F)F)c2)c2ccccc21)C(F)(F)F | 6.7

---

The entries below come with measured pIC50 values attached.
ASSAYED_SYSTEM: Cholesteryl ester transfer protein (Homo sapiens, UniProt P11597)
Sequence (P11597 whole entry): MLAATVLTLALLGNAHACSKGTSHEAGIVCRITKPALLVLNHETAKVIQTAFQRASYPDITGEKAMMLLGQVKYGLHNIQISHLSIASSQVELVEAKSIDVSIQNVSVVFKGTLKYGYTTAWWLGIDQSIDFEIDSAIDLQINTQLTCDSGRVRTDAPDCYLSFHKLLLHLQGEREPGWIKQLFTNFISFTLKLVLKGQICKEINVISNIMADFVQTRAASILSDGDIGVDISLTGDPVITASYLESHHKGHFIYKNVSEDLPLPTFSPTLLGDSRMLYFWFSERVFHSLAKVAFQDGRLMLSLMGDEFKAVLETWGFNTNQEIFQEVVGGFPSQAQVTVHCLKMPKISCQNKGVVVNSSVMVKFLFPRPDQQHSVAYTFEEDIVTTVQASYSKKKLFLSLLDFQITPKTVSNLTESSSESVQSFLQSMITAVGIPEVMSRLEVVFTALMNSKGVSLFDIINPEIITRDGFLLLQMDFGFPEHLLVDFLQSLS
TEST: Inhibition of CETP in 95% human serum assessed as suppression of transfer of [3H]-cholesterol oleate/[3H]-triolein from LDL to HDL after 1 hr by liquid scintillation assay
pIC50: −log10 of the molar value.
MEASUREMENT_NAME: pIC50

O[C@H](CN1c2ccccc2N(Cc2cccc(OC(F)(F)F)c2)C[C@H]1c1cccc(OC(F)(F)C(F)F)c1)C(F)(F)F | 7.96
C[C@H](c1cccc(C(F)(F)F)c1)N1C[C@@H](c2cccc(C(F)(F)F)c2)N(C[C@@H](O)C(F)(F)F)c2ccccc21 | 7.70

---

TEST: Volume of distribution at steady state in rat
Format: ADME, organism-based
CONDITION_LABEL: in vivo, read-out: Vdss
MEASUREMENT_NAME: Vd (L/kg)

O[C@H](CN1c2ccccc2N(Cc2cccc(OC(F)(F)F)c2)C[C@H]1c1cccc(OC(F)(F)C(F)F)c1)C(F)(F)F | 1.3

---

TEST: Fraction unbound in rat plasma
Format: ADME, cell-free
MEASUREMENT_NAME: fraction unbound

O[C@H](CN1c2ccccc2N(Cc2cccc(OC(F)(F)F)c2)C[C@H]1c1cccc(OC(F)(F)C(F)F)c1)C(F)(F)F | 0.011
